As shown below, each of these sequences has a reported apparent KD of MS2 coat protein value.
# System: MS2 coat protein
# MEASUREMENT_DESCRIPTION: apparent KD of MS2 coat protein; higher = weaker reporter binding
# EXPERIMENTAL_PARAMETERS: Eterna round: R107; input ligand: none
# number only, unit nM dropped from output

The sequence listed as CUCCUGUGAGCGGCCGCCACUGGAGGCCUCGCGCGACAUGAGGAUCACCCAUGUUGGCCCGGCCUCAGGACCGGGUUCGCGCGAG [Same State - Tryptophan B Attempt #4 (HarryS)] shows apparent KD of MS2 coat protein equal to 11.1

The sequence listed as GAAUUUUAUUGAAGGAGCGUCGAAAAUGGGUAAACAUGAGGAUCACCCAUGUAAAGGGAACGACAGGUAGGUCGCAAUAGGAUUC [AstromonsSSArgB#28] shows apparent KD of MS2 coat protein equal to 177

The sequence listed as ACAAGAGGUGGAAGGAGCGGGAGACAUGAGGAUCACCCAUGUGAAGUUUCGAGAGGAUCAUCCCAGGUAGGUCGCCAUGUCGAAA [ojjomullin] shows apparent KD of MS2 coat protein equal to 41.7

The sequence listed as GGGCAAGAGGGAAGGAGCGUCAGCUGAGUCACAUGAGGAUCACCCAUGUCGCACAUAGUGUGACAGGUAGGUCGCCCUCUGCCCU [Zaistiqu] shows apparent KD of MS2 coat protein equal to 131

The sequence listed as GAGUUCCUGAGAGAUACCAGUGAAGCCACAUGAGGAUCACCCAUGUCCCUCACUCCGGCCCACCCUUGGCAGCUCGAAAGAUGGA [Exclusion Theophylline B GF 21] shows apparent KD of MS2 coat protein equal to 105

The sequence listed as `GGGUACAUCGCGGCCGCCACUGGUGUAAAUACAUGAGGAUCACCCAUGUCGAUGGAGACAUCGGGUAGGACCGGGUGAUGUACCG` shows apparent KD of MS2 coat protein equal to 21.9

Where do the numbers come from? From the supplement of paper PMC9170038.
